- ASSAY PROTOCOL: Solubilizing capacity of imines for a model perfume in water
- Assay type: physicochemical
- CONDITIONS USED: transparent solution of model perfume in water
MEASUREMENT TYPE: Fragrance/Surfactant Weight Ratio

(A) CCCCCCC(C=NC(C)COC(C)COC(C)COC(C)COC(C)COC(C)COC(C)COC(C)COC(C)COC(C)COCCOCCOCCOCCOCCOCCOCCOCCOCCOCCOCCOCCOCCOCCOCCOCCOCCOCCOCCOCCOCCOCCOCCOCCOCCOCCOCCOCCOCCOCCOCCOC)=Cc1ccccc1 (mixture of isomers)
(B) CCCCCCCC=CCCC=NC(C)COC(C)COC(C)COCCOCCOCCOCCOCCOCCOCCOCCOCCOCCOCCOCCOCCOCCOCCOCCOCCOCCOCCOC (mixture of isomers)
// query Quick one: lower Fragrance/Surfactant Weight Ratio, A or B ? Give the chosen item's label as your response.
// result B
(B: 2.7, A: 4.0)

###

- ASSAY PROTOCOL: Solubilizing capacity of imines for a model perfume in water
- Format: physicochemical
- CONDITIONS USED: water 9.0 g and model perfume 0.3 g
MEASUREMENT TYPE: Imine: minimal value of surfactant necessary to obtain a transparent solution (%)

Answered cases to consult:
Just so you know, measured Imine: minimal value of surfactant necessary to obtain a transparent solution for CCCCCCC(C=NC(C)COC(C)COC(C)COC(C)COC(C)COC(C)COC(C)COC(C)COC(C)COC(C)COCCOCCOCCOCCOCCOCCOCCOCCOCCOCCOCCOCCOCCOCCOCCOCCOCCOCCOCCOCCOCCOCCOCCOCCOCCOCCOCCOCCOCCOCCOCCOC)=Cc1ccccc1 (mixture of isomers) [Imine C] came out at 11.43

Just so you know, measured Imine: minimal value of surfactant necessary to obtain a transparent solution for CCCCCCCC=CCCC=NC(C)COC(C)COC(C)COC(C)COC(C)COC(C)COC(C)COC(C)COC(C)COC(C)COCCOCCOCCOCCOCCOCCOCCOCCOCCOCCOCCOCCOCCOCCOCCOCCOCCOCCOCCOCCOCCOCCOCCOCCOCCOCCOCCOCCOCCOCCOCCOC (mixture of isomers) [Imine G] came out at 14.68

Just so you know, measured Imine: minimal value of surfactant necessary to obtain a transparent solution for COCCOCCOCCOCCOCCOCCOCCOCCOCCOCCOCCOCCOCCOCCOCCOCCOCCOCCOCCOCCOCCOCCOCCOCCOCCOCCOCCOCCOCCOCCOCCOCC(C)OCC(C)OCC(C)OCC(C)OCC(C)OCC(C)OCC(C)OCC(C)OCC(C)OCC(C)N=CC=C(C)CCC=C(C)C (mixture of isomers) [Imine E] came out at 23.14

(a) CCCCCCCC=CCCC=NC(C)COC(C)COC(C)COCCOCCOCCOCCOCCOCCOCCOCCOCCOCCOCCOCCOCCOCCOCCOCCOCCOCCOCCOC (mixture of isomers) [Imine F]
(b) COCCOCCOCCOCCOCCOCCOCCOCCOCCOCCOCCOCCOCCOCCOCCOCCOCCOCCOCCOCC(C)OCC(C)OCC(C)N=CC=C(C)CCC=C(C)C (mixture of isomers) [Imine D]
// query Pick one: a or b . Which has the bigger Imine: minimal value of surfactant necessary to obtain a transparent solution number? Give the chosen item's label as your response.
// result b

###

- ASSAY PROTOCOL: Surface tension of aqueous solutions (Kruss DSA 10 MK2 Drop Shape Analysis)
- Format: physicochemical
- CONDITIONS USED: aqueous solution 1% wt, FIG. 2
MEASUREMENT TYPE: surface tension / surface activity

Just so you know, measured surface tension / surface activity for COCCOCCOCCOCCOCCOCCOCCOCCOCCOCCOCCOCCOCCOCCOCCOCCOCCOCCOCCOCC(C)OCC(C)OCC(C)N=CC=C(C)CCC=C(C)C (mixture of isomers) came out at strong surface activity

Just so you know, measured surface tension / surface activity for CCCCCCCC=CCCC=NC(C)COC(C)COC(C)COCCOCCOCCOCCOCCOCCOCCOCCOCCOCCOCCOCCOCCOCCOCCOCCOCCOCCOCCOC (mixture of isomers) came out at strong surface activity

Just so you know, measured surface tension / surface activity for COCCOCCOCCOCCOCCOCCOCCOCCOCCOCCOCCOCCOCCOCCOCCOCCOCCOCCOCCOCCOCCOCCOCCOCCOCCOCCOCCOCCOCCOCCOCCOCC(C)OCC(C)OCC(C)OCC(C)OCC(C)OCC(C)OCC(C)OCC(C)OCC(C)OCC(C)N=CC=C(C)CCC=C(C)C (mixture of isomers) came out at strong surface activity

###

- ASSAY PROTOCOL: Solubilizing capacity of imines for a model perfume in water
- Type: physicochemical
- CONDITIONS USED: transparent solution of model perfume in water
MEASUREMENT TYPE: Fragrance/Surfactant Weight Ratio

(1) CCCCCCCC=CCCC=NC(C)COC(C)COC(C)COC(C)COC(C)COC(C)COC(C)COC(C)COC(C)COC(C)COCCOCCOCCOCCOCCOCCOCCOCCOCCOCCOCCOCCOCCOCCOCCOCCOCCOCCOCCOCCOCCOCCOCCOCCOCCOCCOCCOCCOCCOCCOCCOC (mixture of isomers)
(2) COCCOCCOCCOCCOCCOCCOCCOCCOCCOCCOCCOCCOCCOCCOCCOCCOCCOCCOCCOCCOCCOCCOCCOCCOCCOCCOCCOCCOCCOCCOCCOCC(C)OCC(C)OCC(C)OCC(C)OCC(C)OCC(C)OCC(C)OCC(C)OCC(C)OCC(C)N=CC=C(C)CCC=C(C)C (mixture of isomers)
// query Quick one: lower Fragrance/Surfactant Weight Ratio, 1 or 2 ? Give the chosen item's label as your response.
// result 1
